Tested on: HOP-92 NSCLC
ASSAY_TEXT: NCI tumour cell line growth inhibition, 48 h
PARAMETER_MEASURED: TGI

COc1ccc2c(c1)CCCc1cn[nH]c1-2 | > 100 µM
CN(C)/N=C(\CCN1CCCC1)CC(c1ccccc1)c1c(O)c2ccccc2oc1=O (stereo not given) | > 100 µM
C=C1C(=O)O[C@H]2[C@H]1CC/C(COC(=O)/C=C\C(=O)NCc1ccc(Cn3c(=O)sn(-c4ccc(C#N)cc4)c3=O)cc1)=C\CC[C@@]1(C)O[C@@H]21 | 1.45 µM
COC(=O)CCC(=O)NC1c2cccc3cccc(c23)Cn2c(=O)n(C)c(=O)n21 (stereo not given) | > 100 µM
Cc1cccc(C(C)(C)C)c1NC(=O)CCc1n[nH]c(=S)o1 | > 100 µM
Cc1cc(NS(=O)(=O)c2ccc(N=Nc3c(O)c(C(=O)O)cc4ccccc34)cc2)nc(C)n1 | > 100 µM
COc1cc([C@@H]2c3cc4c(cc3C(O[C@@H]3O[C@@H]5CO[C@@H](c6cccs6)OC5[C@H](O)[C@H]3O)C3COC(=O)[C@@H]32)OCO4)cc(OC)c1O (stereo not given in full) | 1.25 µM
Cc1oc2nc(N(C)C)nc(Cl)c2c1C | > 100 µM

What is its TGI for HOP-92 NSCLC? Entry: O=P(c1ccccc1)(c1ccccc1)C(NCc1ccccc1)c1ccc(F)cc1 (stereo not given) 26.6 µM

What is its TGI for HOP-92 NSCLC? Entry: "CCCNC(=S)N/N=C(\C)c1ccccn1" > 100 µM

What is its TGI for HOP-92 NSCLC? Entry: "COc1ccc(OC)c2c1C(=O)C(Cl)=C(N1CCN(CCOCCO)CC1)C2=O" 31.8 µM

---

System: OVCAR-4 ovarian
ASSAY_TEXT: NCI tumour cell line growth inhibition, 48 h; in the data active means GI50 below about 0.43 µM; inactive means the rest
The reply should be one of these categories: active, inactive

See these solved cases before continuing.
Cn1cc(C2=C(c3cn(C)c4c(N)cccc34)C(=O)NC2=O)c2ccccc21 | inactive
COc1cc2c3c(n(CCCBr)c(=O)c2cc1OC)-c1ccc(NC(C)=O)cc1C3=O | inactive

What outcome does the record of this test show for "Cc1cc(C2CCCCC2)n(O)c(=O)c1" ? inactive

What outcome does the record of this test show for "COc1ccc(C(=O)/C=C/c2cccnc2Nc2cc(OC)c(OC)c(OC)c2)cc1" ? inactive

What outcome does the record of this test show for COc1cc([C@@H]2c3cc4c(cc3C(O[C@@H]3O[C@@H]5CO[C@@H](c6cccs6)OC5[C@H](O)[C@H]3O)C3COC(=O)[C@@H]32)OCO4)cc(OC)c1O (stereo partly drawn) ? active

What outcome does the record of this test show for "N#C/C(C(=S)Nc1ccccc1)=C1/NN=C2c3ccccc3C(=O)NN21" ? inactive

What outcome does the record of this test show for COc1ccc(C2CC(=O)c3c(O)c(OC)c(OC)c(OC)c3O2)c(O)c1 (stereo not drawn) ? inactive

What outcome does the record of this test show for "Cn1cc(-c2csc(-c3cccc(F)c3)n2)c2cccnc21" ? inactive

What outcome does the record of this test show for "COc1ccc(S(=O)(=O)N(Cc2ccc3c(n2)C=CC(C)(C)O3)C2CCC2)cc1OC" ? active

What outcome does the record of this test show for "CC(C)=[CH][Sb]([Br])([CH]=C(C)C)([CH]=C(C)C)[CH]=C(C)C" ? inactive
